The values you see were collected from patent EP4763837A1.

Assay: Photochromic property of photochromic laminate made by coating method
Format: physicochemical
Conditions: laminate by coating method; A96/A0 x 100 after 96 hours accelerated degradation, xenon weather meter X25
Description: First, the photochromic compound obtained in Example 1, a photoinitiator, and a polymerizable compound were mixed to obtain a curable composition. The polymerizable compound was a combination of the following radical polymerizable monomers: […] The resulting photochromic laminates were evaluated by the below-mentioned methods. • (1) Photochromic property • [1] […]
T means recorded Residual ratio is 70% or above; F means it is below 70%.

Solved cases (3 shown):
molecule	cat
CCCCC1(CC)c2cc(OC)ccc2-c2c1c1c(c3cc(OC)c(Sc4c(C)cccc4C)cc23)OC(c2ccc(OC)cc2)(c2ccc(N3CCOCC3)cc2)C=C1 (stereo not shown)	F
CCCOc1ccc(C2(c3ccc(OC)cc3)C=Cc3c4c(c5cc(OC)c(OC)cc5c3O2)-c2ccc(Sc3cccc(C(F)(F)F)c3)cc2C4(CC)CCC)cc1 (stereo not shown)	F
CCCC1(C)c2cc(C)ccc2-c2c1c1c(c3cc(C)ccc23)OC(c2ccc(C)cc2)(c2ccc(OC)cc2)C=C1 (stereo not shown)	F

INPUT: Could you tell me if the measured Residual ratio of CCCCC1(CC)c2ccccc2-c2c1c1c(c3cc(OC)c(N(C)c4ccccc4)cc23)OC(c2ccc(OC)cc2)(c2ccc(OC)cc2)C=C1 (stereo not shown) reaches 70% or more?
OUTPUT: T

INPUT: Does the reported Residual ratio for CCCOc1ccc(C2(c3ccc(N(C)c4ccccc4)cc3)C=Cc3c4c(c5cc(-c6ccc(OC)cc6OC)c(OC)cc5c3O2)-c2ccccc2C4(C)CC)cc1F (stereo not shown) fall at or above the 70% mark?
OUTPUT: F

INPUT: Given CCCCC1(C)c2cc(N(C)c3ccccc3)ccc2-c2c1c1c(c3cc(OC)c(OC)cc23)OC(c2ccc(OC)cc2)(c2ccc(OCCC)cc2)C=C1 (stereo not shown) , state whether its Residual ratio is at least 70%.
OUTPUT: F

INPUT: State whether the measured Residual ratio reaches 70%, counting equality as reaching it, for CCCC1(CC)c2ccccc2-c2c1c1c(c3cc(OC)c(N(C)c4ccccc4)cc23)OC(c2ccc(OC)cc2)(c2ccc(N(c3ccccc3)c3ccccc3)cc2)C=C1 (stereo not shown)
OUTPUT: T
